# TARGET: PARP-1 enzyme (Homo sapiens)
# Construct: made in house
# MEASUREMENT NOTES: In vitro Scintillation Proximity Assay (SPA) for PARP-1 inhibitory activity
# Type: biochemical
# EXPERIMENTAL SETUP: [3H]-NAD+ as ADP-ribosyl donor, biotinylated histones, nicked DNA; read-out: In vitro SPA pIC50 (converted)
Recorded IC50, one value per entry.
Reply numerically in nM, unit not repeated.

Here's what some known entries look like.
MOLECULE	RECORDED ENDPOINT	MEASUREMENT UNITS	VALUE REPORTED
CCc1nc2cc(C(C(C)C)n3ccnc3)ccc2[nH]c1=O (centres unmarked) [Compound 21]	IC50	nM	227
Cc1cc2cc(C(CCc3ccccc3)NC=O)ccc2[nH]c1=O (centres unmarked) [Compound 6]	IC50	nM	769

(Q) Return IC50 (reported value) for this molecule: Cc1cc2cc(C(NCCCN3CCCCC3)C(C)C)ccc2[nH]c1=O (centres unmarked) [Compound 15]
(A) 1260

(Q) Could you please provide reported IC50 for CCc1cc2cc(C(O)C(CC)CC)ccc2[nH]c1=O (centres unmarked) [Compound 5] ? Thanks!
(A) 156

(Q) Return value of IC50 for input Cc1cc2cc(C(C(C)C)n3ccnc3)ccc2[nH]c1=O (centres unmarked) [Compound 2] , no commentary.
(A) 522

----------
RECORDED ENDPOINT: melting point (°C)
Field: numeric (°C). Do not append units.

MOLECULE	VALUE REPORTED
Cc1cc2cc(C(CCc3ccccc3)NC=O)ccc2[nH]c1=O (centres unmarked)	221.3
CCc1nc2cc(C(NC=O)C(C)C)ccc2[nH]c1=O (centres unmarked)	204
CCc1cc2cc(C(O)CN(C)C)ccc2[nH]c1=O (centres unmarked)	131
CCc1cc2cc(C(=O)CN(C)C)ccc2[nH]c1=O	180

(Q) Determine from records and report melting point for Cc1cc2cc(C(C(C)C)n3ccnc3)ccc2[nH]c1=O (centres unmarked)
(A) 211.4

----------
# TARGET: PARP-1 enzyme (Homo sapiens, UniProt P09874)
# Construct: made in house
# Sequence (P09874 whole entry): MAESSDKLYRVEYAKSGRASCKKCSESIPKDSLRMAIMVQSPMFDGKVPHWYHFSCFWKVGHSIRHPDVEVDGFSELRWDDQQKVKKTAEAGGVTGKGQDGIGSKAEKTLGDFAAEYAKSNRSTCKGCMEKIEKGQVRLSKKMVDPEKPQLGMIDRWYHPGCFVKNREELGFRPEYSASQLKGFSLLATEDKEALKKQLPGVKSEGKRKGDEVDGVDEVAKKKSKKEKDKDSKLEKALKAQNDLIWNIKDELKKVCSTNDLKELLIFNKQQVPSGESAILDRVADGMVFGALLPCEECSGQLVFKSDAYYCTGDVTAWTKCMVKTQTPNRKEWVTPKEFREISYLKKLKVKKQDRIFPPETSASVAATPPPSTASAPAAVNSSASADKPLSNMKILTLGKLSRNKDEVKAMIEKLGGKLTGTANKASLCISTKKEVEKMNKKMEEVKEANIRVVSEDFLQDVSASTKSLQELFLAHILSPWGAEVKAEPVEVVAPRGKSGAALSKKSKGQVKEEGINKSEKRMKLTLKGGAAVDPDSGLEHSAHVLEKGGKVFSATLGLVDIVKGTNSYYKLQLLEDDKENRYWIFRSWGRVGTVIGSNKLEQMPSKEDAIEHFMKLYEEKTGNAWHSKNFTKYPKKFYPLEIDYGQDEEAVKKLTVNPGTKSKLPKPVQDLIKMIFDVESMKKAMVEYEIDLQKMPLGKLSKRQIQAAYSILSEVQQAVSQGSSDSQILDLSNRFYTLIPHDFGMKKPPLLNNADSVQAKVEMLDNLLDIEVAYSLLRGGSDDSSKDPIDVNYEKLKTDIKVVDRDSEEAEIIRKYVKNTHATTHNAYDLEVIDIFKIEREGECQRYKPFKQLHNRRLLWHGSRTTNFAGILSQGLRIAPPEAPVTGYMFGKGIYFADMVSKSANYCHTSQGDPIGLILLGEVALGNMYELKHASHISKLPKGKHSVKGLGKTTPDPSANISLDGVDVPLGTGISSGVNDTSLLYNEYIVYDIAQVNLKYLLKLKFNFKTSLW
# MEASUREMENT NOTES: In vitro Scintillation Proximity Assay (SPA) for PARP-1 inhibitory activity
# Assay type: biochemical
# EXPERIMENTAL SETUP: [3H]-NAD+ as ADP-ribosyl donor, biotinylated histones, nicked DNA; read-out: In vitro SPA pIC50 (converted)
RECORDED ENDPOINT: IC50 (µM)
Record the value in µM, omitting the unit from your answer.

Example entries and their recorded answers appear below.
COMPOUND	IC50, µM
CCc1nc2cc(C(NCCCN3CCCCC3)C(C)C)ccc2[nH]c1=O (stereo not drawn)	0.368
Cc1cc2cc(C(CCN(C)C)c3ccco3)ccc2[nH]c1=O (stereo not drawn)	1.04
CC(C)C(c1ccc2[nH]c(=O)c(-c3cccs3)nc2c1)n1cncn1 (stereo not drawn)	0.838

(Q) Retrieve IC50 measured for CCc1nc2cc(C(NCCN3CCC(C(=O)c4ccc(F)cc4)CC3)C(C)C)ccc2[nH]c1=O (stereo not drawn) and print it.
(A) 0.74

(Q) Give recorded IC50. Cc1cc2cc(C(C)NC=O)ccc2[nH]c1=O (stereo not drawn)
(A) 1.02

(Q) Please report IC50 for the following compound: CCc1cc2cc(C(=O)CN(C)C)ccc2[nH]c1=O
(A) 0.259
